measurement notes: Metabolic stability in rat liver microsomes assessed as parent compound remaining incubated for 10 mins in presence of NADPH
Assay type: ADME, Microsome
assay context: read-out: Stabilty
readout kind: remaining at 10 min (%)
One number for each entry, in %.

Would you please look over these solved cases?
CCCCc1nc(=O)c(S(=O)(=O)c2ccc(-n3cc(Cl)ccc3=O)cc2)c(O)n1-c1c(OC)cccc1OC ... 74
CCCCc1nc(=O)c(S(=O)(=O)c2ccc(-n3ccccc3=O)cc2)c(O)n1-c1c(OC)cccc1OC ... 83
CCCCc1[nH]c(=O)c(S(=O)(=O)c2ccc(-c3ccncc3C)cc2)c(O)c1-c1c(OC)cccc1OC ... 57
CCCCc1nc(=O)c(S(=O)(=O)c2ccc(-c3cccnc3OC)cc2)c(O)n1-c1c(OC)cccc1OC ... 27
COc1cccc(OC)c1-n1c(CCC(C)C)nc(=O)c(S(=O)(=O)c2ccc(-c3ccc(F)nc3)cc2)c1O ... 1

// input: 2 compounds below; output: remaining at 10 min for each
1. CCCCc1[nH]c(=O)c(S(=O)(=O)c2ccc(-n3ccccc3=O)cc2)c(O)c1-c1c(OC)cccc1OC
2. CCCCc1nc(=O)c(S(=O)(=O)c2ccc(-c3ccc(F)cc3)cc2)c(O)n1-c1c(OC)cccc1OC

Completion:
1. 100
2. 5
